Taken from PubChem BioAssay (NCI).

Each item that follows carries a reported GI50.
System: SW-620 colon
Assay: NCI tumour cell line growth inhibition, 48 h

Answered cases to consult:
Hey, SW-620 colon data for CC(=O)[O][Hg][c]1s[c]([Hg][O]C(C)=O)[c]([Hg][O]C(C)=O)[c]1[Hg][O]C(C)=O : GI50 came out at 6.51 µM

Hey, SW-620 colon data for c1ccc(-c2cc3n4c(-c5ccccc5)nn(-c5ccccc5)c4cnc-3n2)cc1 : GI50 came out at > 50 µM

Hey, SW-620 colon data for COc1ccc2c(c1)C=CC1C2CC[C@]2(C)C(NC(=O)/C=C/c3ccc(O)c(O)c3)CCC12 (some centres undefined) : GI50 came out at 9.93 µM

Next:
Hey, SW-620 colon data for Cc1c2ccccc2c(C)n2c1nc1cc(Cl)c(Cl)cc12 : GI50 came out at 74.1 µM

----------
System: SF-539 CNS
Test: NCI tumour cell line growth inhibition, 48 h
Each item that follows carries a reported TGI.
State just the number; it will be interpreted in µM.

Note to self: TGI recorded for COc1ccc(C2=Nc3c(nc(SC)[nH]c3=O)NC(c3ccccc3)C2)cc1 (configuration not stated) was 37.3

Note to self: TGI recorded for Cc1ccc(S(=O)(=O)N/N=C\c2c3ccccc3[n+](C)c3ccccc23)cc1 was 54

Note to self: TGI recorded for CC[C@@H](C(=O)[C@@H](C)[C@@H](O)[C@H](C)[C@@H]1O[C@@H]([C@@H](CC)C(=O)O)CC[C@@H]1C)[C@H]1O[C@]2(C=C[C@@H](O)[C@]3(CC[C@@](C)([C@H]4CC[C@](O)(CC)[C@H](C)O4)O3)O2)[C@H](C)C[C@@H]1C was 5.27

More entries:
Note to self: TGI recorded for CCN1CCC(O)(/C=C/c2ccccc2)C(C(=O)/C=C/c2ccccc2)C1 (configuration not stated) was 3.76

----------
Test system: SF-268 CNS
Test: NCI tumour cell line growth inhibition, 48 h; in the data active = GI50 below about 0.43 µM; inactive = the rest
Respond with a class label; see 1.0 (active), 0.0 (inactive)

Answered examples (3):
What is the recorded call for this compound in the test? C1CC[N-]CC1.CC(=N\O)/C(C)=N/O.CC(=N\O)/C(C)=N/O.C[CH-]C(C)O.[Co+2]
0.0

What is the recorded call for this compound in the test? CCSc1nc(N)c2cnn(CC)c2n1
0.0

What is the recorded call for this compound in the test? COC(=O)[C@@H](C)C[C@H](Cc1ccccc1)NC(=O)c1csc([C@@H](C[C@H](C(C)C)N(C)C(=O)[C@@H](NC(=O)[C@H]2CCCCN2C)C(C(F)(F)F)C(F)(F)F)OC(C)=O)n1
1.0

Please find the next compound below.
What is the recorded call for this compound in the test? CSc1nc2ccc(C)cc2cc1/C=C1/C=C(c2ccccc2)NC1=O
0.0

----------
System: HOP-92 NSCLC
Test: NCI tumour cell line growth inhibition, 48 h; in the data active = GI50 below about 0.43 µM; inactive = the rest
Respond with a class label; see active, inactive

Answered examples (2):
What is the recorded call for this molecule in the test? Cn1cc(-c2csc(-c3cn(C(=O)OC(C)(C)C)c4ccccc34)n2)c2cccnc21
inactive

What is the recorded call for this molecule in the test? N#Cc1cc2c(cc1Cl)SC(=Nc1ccccc1)N(S(=O)(=O)c1ccc(Br)s1)S2(=O)=O
inactive

More entries:
What is the recorded call for this molecule in the test? N=C(N)c1ccc(-c2ccc(-c3ccc(Cl)cc3Cl)s2)nc1
inactive

What is the recorded call for this molecule in the test? O=C(N/N=C/c1ccc(N(CCCl)CCCl)cc1)c1ccc(C(=O)N/N=C/c2ccc(N(CCCl)CCCl)cc2)cc1
inactive

What is the recorded call for this molecule in the test? C[C@@H]1Cc2c(ccc3[nH]ncc23)[C@@H](c2ccc(NC3CN(CCCF)C3)cn2)N1CC(F)(F)F
inactive

What is the recorded call for this molecule in the test? COc1ccc(S(=O)(=O)Nc2cc(Sc3cccc4cccnc34)c(O)c3ccccc23)cc1
inactive

What is the recorded call for this molecule in the test? c1ccc(-c2cc3n4c(-c5ccccc5)nn(-c5ccccc5)c4cnc-3n2)cc1
inactive

What is the recorded call for this molecule in the test? CC[C@@H](C(=O)[C@@H](C)[C@@H](O)[C@H](C)[C@@H]1O[C@@H]([C@@H](CC)C(=O)O)CC[C@@H]1C)[C@H]1O[C@]2(C=C[C@@H](O)[C@]3(CC[C@@](C)([C@H]4CC[C@](O)(CC)[C@H](C)O4)O3)O2)[C@H](C)C[C@@H]1C
active
